- Test system: 435261-313-R-J1-PDC complex spheroid viability;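 also: spheroids exposed to the agents for seven days before readout; percent of vehicle control viability with DMSO wells as 100%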
- PROCEDURE DETAILS: Anticancer human tumor 435261-313-R-J1-PDC patient-derived colon adenocarcinoma cell line growth inhibition [GQUAD]
- CONDITION NOTES: second compound 0.316 µM; first compound 0.00999 µM; active compounds read low
The following molecules are shown together with reported viability, T/C values.
Express it in %; write the number only.

MOLECULE | MEASUREMENT UNITS | viability, T/C
Cn1ncnc1[C@H]1c2n[nH]c(=O)c3cc(F)cc(c23)N[C@@H]1c1ccc(F)cc1 + Cc1[nH]c2ccc(F)cc2c1-c1nc2c3cccnc3c3ncccc3c2[nH]1 | % | 92.1
Cc1[nH]c2ccccc2c1CCNCc1ccc(/C=C/C(=O)NO)cc1 + CN(C)c1ccc(Nc2c3ccc(NC(=O)CCN4CCCC4)cc3nc3cc(NC(=O)CCN4CCCC4)ccc23)cc1 | % | 91.4

Would you kindly look at the next entry?
So, Cn1ncnc1[C@H]1c2n[nH]c(=O)c3cc(F)cc(c23)N[C@@H]1c1ccc(F)cc1 + Cc1cnc(CNC(=O)c2c(=O)c3ccc(N4CCCN(C)CC4)nc3n3c2sc2ccccc23)cn1 ? Its viability, T/C was 55.4
